- Substrate: PET
- assay explanation: Proxy for plastic degradation [Released monomer concentration (HPLC/LC-MS) (TPA)]
- experimental setup: pH 9
observation type: Proxy for plastic degradation

| protein | value observed |
| --- | --- |
| unnamed (protein) NPYARGPNPTAASLEASAGPFTVRSFTVSRPSGYGAGTVYYPTNAGGTVGAIAIVPGYTARQSSIKWWGPRLASHGFVVITIDTNSTLDQPSSRSSQQMAALRQVASLNGTSSSPIYGKVDTARMGVMGWSMGGGGSLISAANNPSLKAAAPQAPWDSSTNFSSVTVPTLIFACENDSIIPVNSSALPIYDSMSRNAKQFLEINGGSHSCANSGNSNQALIGKKGVAWMKRFMDNDTRYSTFACENPNSTRVSDFRTANCS | 11 nM |
| unnamed (protein) NPYARGPNPTAASLEASAGPFTVRSFTVSRPSGYGAGTVYYPTNAGGTVGAIAIVPGYTARQSSIKWWGPRLASHGFVVITIDTNSTLDAPSSRSSQQMAALRQVASLNGTSSSPIYGKVDTARMGVMGWSMGGGGSLISAANNPSLKAAAPQAPWDSSTNFSSVTVPTLIFACENDSIAPVNSSALPIYDSMSRNAKQFLEINGGSHSCANSGNSNQALIGKKGVAWMKRFMDNDTRYSTFACENPNSTRVSDFRTANCS | 6 nM |
| unnamed (protein) NPYARGPNPTAASLEASAGPFTVRSFTVSRPSGYGAGTVYYPTNAGGTVGAIAIVPGATARQSSIKWWGPRLASHGFVVITIDTNSTLDQPSSRSSQQMAALRQVASLNGTSSSPIYGKVDTARMGVMGWSMGGGGSLISAANNPSLKAAAPQAPWDSSTNFSSVTVPTLIFACENDSIAPVNSSALPIYDSMSRNAKQFLEINGGSHSCANSGNSNQALIGKKGVAWMKRFMDNDTRYSTFACENPNSTRVSDFRTANCS | 21 nM |
